- assay.name: Maximum tolerated dose (LD10) in tumor-free male mice
- experimental.parameters: ip days 1, 5, 9; deaths observed during 21 days; from plot of log dose vs percent mortality
- Procedure: The analogues were also tested in tumor-free male mice for their LD10 values (Table XIV). The animals were given a broad range of doses (ip) on days 1, 5, and 9. […] On the basis of these values, the calculated therapeutic index values of SAD is 96, and those of RAD I, II, and III are 60, 67, and 70, respectively. […] days). Values were calculated from a plot of log dose vs percent
result.type: MTD (maximum tolerated dose), lethal dose for 10% of normal mice (LD10)

Asked: Tell me MTD (maximum tolerated dose), lethal dose for 10% of normal mice (LD10) reported for Cc1c2oc3c(C)c(O)c(N)c(C(=O)N[C@@H]4C(=O)N[C@H](C(C)C)C(=O)N5CCC[C@H]5C(=O)N(C)CC(=O)N(C)[C@@H](C(C)C)C(=O)O[C@@H]4C)c3nc-2c(C(=O)N[C@@H]2C(=O)N[C@H](C(C)C)C(=O)N3CCC[C@H]3C(=O)N(C)CC(=O)N(C)[C@@H](C(C)C)C(=O)O[C@@H]2C)c(N)c1=O [SAD (2)]
Given back: 2.40 milligram/kilogram

###

- Tested on: rat liver microsomes
- assay.name: Stimulation of adrenochrome formation (superoxide) by rat hepatic microsomal incubations
- Type: biochemical
- experimental.parameters: without SOD; (drug-stimulated rate - basal rate)/basal rate × 100
- Method: It has been reported that the quinone imino chromophore of actinomycin can be subjected to enzyme-catalyzed single-electron reduction to give free-radical species that generate superoxides by reacting with molecular oxygen. The process needs a reductive cofactor NADPH, which is oxidized to NADP^+ during the process, giving a change in the absorbance at 340 nm that can be measured spectrophotometerically. […] at 340 nm and adrenochrome formation was measured at 489 nm; the values […]
*1 amine or outer side, *2 acyl side, *3 side chain or, on linkers, in order; H or OH if unused. Where a SMILES comes first, the peptide text is derived from it. Bridges are numbered along the chain shown (N, C = ends). Roman numbers before positions name the chains, in order. [ ]: non-standard residue; d: D form. Actinocin(9to1) = Cc1c2oc3c(C)ccc(C(=O)[*:1])c3nc-2c(C(=O)[*:2])c(N)c1=O; NMeV = CN[C@H](C(=O)O)C(C)C; Sar = CNCC(=O)O
result.type: percentage stimulation of adrenochrome formation (%)
Write down the numeric answer in % and omit the unit.

Known percentage stimulation of adrenochrome formation results, listed for orientation:
INSERT INTO measurements (compound, unit_name, numeric_result) VALUES
  ('Cc1c2oc3c(C)c4oc(CC(=O)NCCCCN)nc4c(C(=O)N[C@@H]4C(=O)N[C@H](C(C)C)C(=O)N5CCC[C@H]5C(=O)N(C)CC(=O)N(C)[C@@H](C(C)C)C(=O)O[C@@H]4C)c3nc-2c(C(=O)N[C@@H]2C(=O)N[C@H](C(C)C)C(=O)N3CCC[C@H]3C(=O)N(C)CC(=O)N(C)[C@@H](C(C)C)C(=O)O[C@@H]2C)c(N)c1=O', '%', 870),
  ('Cc1c2oc3c(C)ccc(C(=O)N[C@@H]4C(=O)N[C@H](C(C)C)C(=O)N5CCC[C@H]5C(=O)N(C)CC(=O)N(C)[C@@H](C(C)C)C(=O)O[C@@H]4C)c3nc-2c(C(=O)N[C@@H]2C(=O)N[C@H](C(C)C)C(=O)N3CCC[C@H]3C(=O)N(C)CC(=O)N(C)[C@@H](C(C)C)C(=O)O[C@@H]2C)c(N)c1=O [AMD (1), Actinomycin D] (I: T[dV]P[Sar][NMeV] / II: T[dV]P[Sar][NMeV]; ester I:1-I:C, II:1-II:C; linker I:N-II:N via Actinocin(9to1))', '%', 8.5);

Could you now consider this next compound?
Asked: Annotate the compound Cc1c2oc3c(C)c(O)c(N)c(C(=O)N[C@@H]4C(=O)N[C@H](C(C)C)C(=O)N5CCC[C@H]5C(=O)N(C)CC(=O)N(C)[C@@H](C(C)C)C(=O)O[C@@H]4C)c3nc-2c(C(=O)N[C@@H]2C(=O)N[C@H](C(C)C)C(=O)N3CCC[C@H]3C(=O)N(C)CC(=O)N(C)[C@@H](C(C)C)C(=O)O[C@@H]2C)c(N)c1=O with its measured percentage stimulation of adrenochrome formation.
Given back: 815
